experiment: Selectivity index, ratio of CC50 for human MT4 cells to EC50 for wild type HIV1 3B infected in human MT4 cells; format: toxicity, cell-based; settings: MT4 cells infected with wild type HIV1 3B, read-out: Ratio CC50/EC50
Property name: selectivity ratio

Guide cases for selectivity ratio, answers given:
>>> data_value("Cc1cc(C#N)cc(C)c1Oc1nc(NC2CCC(NC(=O)c3ccccc3)CC2)nc2ccsc12 (configuration not stated)")
294
>>> data_value("Cc1cc(C#N)cc(C)c1Oc1nc(NC2CCC(NS(=O)(=O)c3ccc(F)cc3)CC2)nc2ccsc12 (configuration not stated)")
383
>>> data_value("Cc1cc(C#N)cc(C)c1Oc1nc(NC2CCC(NS(=O)(=O)c3ccc(C#N)cc3)CC2)nc2ccsc12 (configuration not stated)")
1310

Please state selectivity ratio for every compound in the list that follows.
1. Cc1cc(C#N)cc(C)c1Oc1nc(NC2CCC(NC(=O)c3cccc(C(F)(F)F)c3)CC2)nc2ccsc12 (configuration not stated)
2. CC(=O)Nc1ccc(S(=O)(=O)NC2CCC(Nc3nc(Oc4c(C)cc(C#N)cc4C)c4sccc4n3)CC2)cc1 (configuration not stated)
3. Cc1cc(C#N)cc(C)c1Oc1nc(NC2CCC(NC(=O)c3ccc(C#N)cc3)CC2)nc2ccsc12 (configuration not stated)
4. Cc1cc(C#N)cc(C)c1Oc1nc(NC2CCC(NC(=O)c3ccc(F)cc3)CC2)nc2ccsc12 (configuration not stated)

[17, 340, 19, 121]

###

system: Human immunodeficiency virus 1; experiment: Antiviral activity against HIV1 3B harboring reverse transcriptase Y181C mutant infected in human MT4 cells assessed as inhibition of virus-induced cytopathic effect after 5 days by MTT assay; type: functional, organism-based; settings: Human immunodeficiency virus 1, 3B, MT4, 120 h
Can you tell me pEC50 for the items I'm about to list?
Answers are plain numbers, as −log10 of the molar value.

Consider the following illustrative entries.
>>> data_value("Cc1cc(C#N)cc(C)c1Oc1nc(Nc2ccc(C#N)cc2)nc(N)c1Br")
7.72
>>> data_value("Cc1cc(C#N)cc(C)c1Oc1nc(NC2CCC(NS(=O)(=O)c3ccc(F)cc3)CC2)nc2ccsc12 (configuration not stated)")
6.33
>>> data_value("Cc1cn([C@H]2C[C@H](N=[N+]=[N-])[C@@H](CO)O2)c(=O)[nH]c1=O")
8.20
>>> data_value("Cc1cc(C#N)cc(C)c1Oc1nc(NC2CCC(NS(=O)(=O)c3ccc(C#N)cc3)CC2)nc2ccsc12 (configuration not stated)")
6.37
>>> data_value("CC(=O)Nc1ccc(S(=O)(=O)NC2CCC(Nc3nc(Oc4c(C)cc(C#N)cc4C)c4sccc4n3)CC2)cc1 (configuration not stated)")
6.29

Kindly review the next compound as well.
// pEC50 lookup, compound = Cc1cc(C#N)cc(C)c1Oc1nc(NC2CCC(NS(=O)(=O)c3ccc(Br)cc3)CC2)nc2ccsc12 (configuration not stated) , result: 6.07

###

assay: Cytotoxicity against human MT4 cells assessed as reduction in cell viability after 5 days by MTT assay; type: cell-based
Hi! Could you tag entries with CC50 at 120 h below 3 µM as true (1), and those at or above as false (0)? Much appreciated.

Would you please look over these solved cases?
>>> category_label("Cc1cc(C#N)cc(C)c1Oc1nc(NC2CCC(NS(=O)(=O)c3cccc(C(F)(F)F)c3)CC2)nc2ccsc12 (configuration not stated)")
"false (0)"
>>> category_label("Cc1cc(C#N)cc(C)c1Oc1nc(NC2CCC(NC(=O)c3ccc(F)cc3)CC2)nc2ccsc12 (configuration not stated)")
"false (0)"
>>> category_label("Cc1cc(C#N)cc(C)c1Oc1nc(NC2CCC(NC(=O)c3ccc(Br)cc3)CC2)nc2ccsc12 (configuration not stated)")
"true (1)"
>>> category_label("Cc1cc(C#N)cc(C)c1Oc1nc(NC2CCC(NS(=O)(=O)c3ccc(Br)cc3)CC2)nc2ccsc12 (configuration not stated)")
"false (0)"

Given the entry Cc1cc(C#N)cc(C)c1Oc1nc(NC2CCC(NC(=O)c3ccc(C#N)cc3)CC2)nc2ccsc12 (configuration not stated) , would its reported CC50 at 120 h be below 3 µM?
true (1)

Is the reported CC50 at 120 h for Cc1cc(C#N)cc(C)c1Oc1nc(NC2CCC(NS(=O)(=O)c3ccc(C#N)cc3)CC2)nc2ccsc12 (configuration not stated) strictly below 3 µM?
false (0)

State whether 3 µM exceeds CC50 at 120 h recorded for Cc1cc(C#N)cc(C)c1Oc1nc(Nc2ccc(C#N)cc2)nc(N)c1Br .
true (1)

Item Cc1cn([C@H]2C[C@H](N=[N+]=[N-])[C@@H](CO)O2)c(=O)[nH]c1=O : CC50 at 120 h beneath 3 µM, strictly?
false (0)

Record Cc1cc(C#N)cc(C)c1Oc1nc(NC2CCC(NC(=O)c3ccccc3)CC2)nc2ccsc12 (configuration not stated) : is its CC50 at 120 h strictly below 3 µM?
false (0)

I wonder whether Cc1cc(C#N)cc(C)c1Oc1nc(NC2CCC(NS(=O)(=O)c3ccc(F)cc3)CC2)nc2ccsc12 (configuration not stated) has CC50 at 120 h below 3 µM. Can you tell?
false (0)

Determine if Cc1cc(C#N)cc(C)c1Oc1nc(NC2CCC(NC(=O)c3cccc(C(F)(F)F)c3)CC2)nc2ccsc12 (configuration not stated) shows CC50 at 120 h strictly lower than 3 µM.
false (0)

I'd appreciate it if you could check whether CC(=O)Nc1ccc(S(=O)(=O)NC2CCC(Nc3nc(Oc4c(C)cc(C#N)cc4C)c4sccc4n3)CC2)cc1 (configuration not stated) has CC50 at 120 h smaller than 3 µM.
false (0)

###

assay: Selectivity index, ratio of CC50 for human MT4 cells to EC50 for wild type HIV1 3B infected in human MT4 cells; assay type: toxicity, cell-based; settings: MT4 cells infected with wild type HIV1 3B, read-out: Ratio CC50/EC50
I'd appreciate it if you could supply selectivity ratio values for the items below.
Give bare numbers.

Some entries whose results are on file:
>>> data_value("Cc1cc(C#N)cc(C)c1Oc1nc(NC2CCC(NS(=O)(=O)c3cccc(C(F)(F)F)c3)CC2)nc2ccsc12 (centres undefined)")
78
>>> data_value("Cc1cc(C#N)cc(C)c1Oc1nc(NC2CCC(NC(=O)c3ccc(Br)cc3)CC2)nc2ccsc12 (centres undefined)")
93

Query Cc1cc(C#N)cc(C)c1Oc1nc(NC2CCC(NS(=O)(=O)c3ccc(Br)cc3)CC2)nc2ccsc12 (centres undefined) yields selectivity ratio of 231

###

tested on: Human immunodeficiency virus 1; test: Antiviral activity against HIV1 3B harboring reverse transcriptase Y181C mutant infected in human MT4 cells assessed as inhibition of virus-induced cytopathic effect after 5 days by MTT assay; type: functional, organism-based; conditions: Human immunodeficiency virus 1, 3B, MT4, 120 h
pEC50: −log10 of the molar value.
Record form. Attribute: pEC50. Fill in for each entry.

Example entries begin here.
>>> data_value("Cc1cc(C#N)cc(C)c1Oc1nc(NC2CCC(NS(=O)(=O)c3cccc(C(F)(F)F)c3)CC2)nc2ccsc12 (stereo unspecified)")
"≤ 5.36"
>>> data_value("Cc1cc(C#N)cc(C)c1Oc1nc(NC2CCC(NC(=O)c3ccc(C#N)cc3)CC2)nc2ccsc12 (stereo unspecified)")
"< 5.58"
>>> data_value("Cc1cc(C#N)cc(C)c1Oc1nc(NC2CCC(NC(=O)c3ccc(Br)cc3)CC2)nc2ccsc12 (stereo unspecified)")
"< 5.55"

Please give pEC50, item by item, for the list that follows.
1. Cc1cc(C#N)cc(C)c1Oc1nc(NC2CCC(NC(=O)c3cccc(C(F)(F)F)c3)CC2)nc2ccsc12 (stereo unspecified)
2. Cc1cc(C#N)cc(C)c1Oc1nc(NC2CCC(NC(=O)c3ccccc3)CC2)nc2ccsc12 (stereo unspecified)
3. Cc1cc(C#N)cc(C)c1Oc1nc(NC2CCC(NC(=O)c3ccc(F)cc3)CC2)nc2ccsc12 (stereo unspecified)

1: < 5.49; 2: ≤ 5.82; 3: < 5.50

# credit: ChEMBL document CHEMBL4130567
